Target: human recombinant BACE2 (Homo sapiens (Human))
Sequence (Q9Y5Z0 63-518): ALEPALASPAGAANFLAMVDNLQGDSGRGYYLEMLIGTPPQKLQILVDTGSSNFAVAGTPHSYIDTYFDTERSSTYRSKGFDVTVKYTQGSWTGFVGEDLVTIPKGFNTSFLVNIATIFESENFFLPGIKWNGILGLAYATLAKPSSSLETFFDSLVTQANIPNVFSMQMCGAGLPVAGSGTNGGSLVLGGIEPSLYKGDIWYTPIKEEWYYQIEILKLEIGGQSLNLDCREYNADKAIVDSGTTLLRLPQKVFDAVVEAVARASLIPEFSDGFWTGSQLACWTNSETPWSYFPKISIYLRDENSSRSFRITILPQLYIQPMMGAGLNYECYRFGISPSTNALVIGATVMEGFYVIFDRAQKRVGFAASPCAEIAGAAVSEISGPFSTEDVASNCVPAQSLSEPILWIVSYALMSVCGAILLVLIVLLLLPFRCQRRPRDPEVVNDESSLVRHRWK
Assay: In vitro enzymatic BACE2 FRET assay
Format: biochemical
Conditions: read-out: IC50 IP (μM) BACE2 enzyme
Please provide measured IC50 for the entries that follow.
Use µM as the unit, but write only the number.

Item C[C@]1(c2cc(NC(=O)c3ccc(OCC(F)(F)F)cn3)cc(F)c2F)N=C(N)S[C@@]2(CF)C[C@H]21 [Example 692] has what recorded IC50?
0.29

Field request: IC50 | item: C#CCOc1cnc2c(Nc3ccc(F)c([C@@]4(C)N=C(N)S[C@@]5(C(F)F)C[C@@H]45)c3)nccc2n1 [Example 816]
0.0183

Field request: IC50 | item: C[C@]1(c2cc(Nc3ncnc4cc(OCc5ncco5)cnc34)cc(F)c2F)N=C(N)S[C@@]2(C(=O)N3CCCC3)C[C@H]21 [Example 936]
0.0182

Which IC50 is reported for this compound? C[C@]1(c2cc(Nc3nccc4nc(OCc5cocn5)cnc34)cc(F)c2F)N=C(N)S[C@@]2(C(F)F)C[C@@H]12 [Example 867]
0.0549

For the compound shown here, COC[C@]12C[C@H]1[C@@](C)(c1cc(NC(=O)c3cnc(OCC(C)C)cn3)ccc1F)N=C(N)S2 [Example 1056] , give the reported IC50.
0.317

Look up IC50: C[C@@H](O)[C@]12C[C@H]1[C@@](C)(c1cc(Nc3ncnc4cc(C#N)cnc34)cc(F)c1F)N=C(N)S2 [Example 908]
0.0255

Each recorded value in this set is attributed to patent US20160046618A1.
